System: HepG2 cells
procedure-details: In vitro cytotoxicity, MTT assay
Format: cell-based
particulars: HepG2, MTT, 0–1000 µg/mL, 24 h
reported-endpoint: Status

CCc1ccc(NC(=S)NN=Cc2cc3cc(C)ccc3nc2N2CCCCC2)cc1 [Compound 5k]: Proliferative
Cc1ccc2nc(N3CCCCC3)c(C=NNC(=S)NCc3ccccc3)cc2c1 [Compound 5l]: Proliferative
Cc1cccc2cc(C=NNC(=S)Nc3cccc(F)c3)c(N3CCCCC3)nc12 [Compound 6i]: Proliferative
Cc1ccc2nc(N3CCCCC3)c(C=NNC(=S)NCCN3CCOCC3)cc2c1 [Compound 5m]: Non-cytotoxic

// Status value for Cc1ccc2nc(N3CCCCC3)c(C=NNC(N)=S)cc2c1 [Compound 5a] : Non-cytotoxic
